# Tested on: α-isomaltosyl-transferring enzyme from Bacillus globisporus N75
# method_summary: Specificity to transferring acceptor
# Type: biochemical
# Design: key: −: no saccharide transferred product was formed; ±: a saccharide-transferred product formed in an amount of less than one percent to the total sugars; +: a saccharide-transferred product was formed in an amount of over one percent but below 10% to the total sugars; ++: a saccharide-transferred product was formed in an amount of over 10% to the total sugars
# particulars: panose as saccharide donor, 10 units/g substrate, 3.2% (w/v), 30° C., pH 6.0, 24 hours
assay_metric: Product of transferring reaction, Enzyme of Strain N75

>>> observed_result("OC[C@@H](O)[C@@H](O)[C@H](O)[C@@H](O)CO")
"−"
>>> observed_result("OC[C@@H](O)C(O)[C@H](O)CO")
"−"

====

# Tested on: α-isomaltosyl-transferring enzyme from Bacillus globisporus C9
# method_summary: Action on saccharides (substrates, TLC)
# Format: biochemical
# Design: key: −: there was found no substrate change before and after the enzymatic reaction; +: there were found both the reduction of substrate and the formation of cyclotetrasaccharide after the enzymatic reaction
# particulars: 2 units/g substrate, 2% (w/v) substrate, 30° C., pH 6.0, 24 hours
assay_metric: Enzymatic action for forming cyclotetrasaccharide, Enzyme of Strain C9

>>> observed_result("OC[C@H]1O[C@@](CO)(O[C@H]2O[C@H](CO)[C@@H](O)[C@H](O)[C@H]2O)[C@@H](O)[C@@H]1O [Sucrose, sucrose]")
"−"
>>> observed_result("OC[C@H]1O[C@H](O[C@H]2[C@H](O)[C@@H](CO)OC(O)[C@@H]2O)[C@H](O)[C@@H](O)[C@@H]1O (stereo partly drawn) [Nigerose, nigerose]")
"−"
>>> observed_result("OC[C@H]1O[C@H](OC[C@H]2O[C@H](O[C@H]3[C@H](O)[C@@H](O)C(O)O[C@@H]3CO)[C@H](O)[C@@H](O)[C@@H]2O)[C@H](O)[C@@H](O)[C@@H]1O (stereo partly drawn) [Panose, panose]")
"+"
>>> observed_result("OC[C@H]1O[C@H](OC[C@H]2OC(O)[C@H](O)[C@@H](O)[C@@H]2O)[C@H](O)[C@@H](O)[C@@H]1O (stereo partly drawn) [Isomaltose, isomaltose]")
"−"
>>> observed_result("OC[C@H]1O[C@H](OC[C@H]2O[C@H](O[C@H]3[C@H](O)[C@@H](O)[C@@H](O[C@H]4[C@H](O)[C@@H](O)C(O)O[C@@H]4CO)O[C@@H]3CO)[C@H](O)[C@@H](O)[C@@H]2O)[C@H](O)[C@@H](O)[C@@H]1O (stereo partly drawn) [Isomaltosylmaltose, isomaltosylmaltose]")
"+"
>>> observed_result("OC[C@H]1O[C@H](O[C@H]2C(O)O[C@H](CO)[C@@H](O)[C@@H]2O)[C@H](O)[C@@H](O)[C@@H]1O (stereo partly drawn) [Kojibiose, kojibiose]")
"−"
>>> observed_result("OC[C@H]1O[C@@H](O[C@H]2[C@H](O)[C@@H](O)C(O)O[C@@H]2CO)[C@H](O)[C@@H](O)[C@H]1O (stereo partly drawn) [Lactose, lactose]")
"−"
>>> observed_result("OC[C@H]1O[C@@H]2O[C@H]3[C@H](O)[C@@H](O)[C@@H](O[C@H]4[C@H](O)[C@@H](O)[C@@H](O[C@H]5[C@H](O)[C@@H](O)[C@@H](O[C@H]6[C@H](O)[C@@H](O)[C@@H](O[C@H]7[C@H](O)[C@@H](O)[C@@H](O[C@H]8[C@H](O)[C@@H](O)[C@@H](O[C@H]9[C@H](O)[C@@H](O)[C@@H](O[C@H]1[C@H](O)[C@H]2O)O[C@@H]9CO)O[C@@H]8CO)O[C@@H]7CO)O[C@@H]6CO)O[C@@H]5CO)O[C@@H]4CO)O[C@@H]3CO [γ-Cyclodextrin, γ-cyclodextrin]")
"−"
>>> observed_result("OC[C@H]1O[C@@H](O[C@H]2O[C@H](CO)[C@@H](O)[C@H](O)[C@H]2O)[C@H](O)[C@@H](O)[C@@H]1O [α,β-trehalose]")
"−"

====

# System: α-isomaltosyl-transferring enzyme from Bacillus globisporus C9
# method_summary: Influence of metal ions on enzyme activity
# Type: biochemical
# particulars: 1 mM metal ion; enzyme of Strain C9
assay_metric: Relative activity (%)

>>> observed_result("[Cu+2] [Cu^2+]")
57
>>> observed_result("[Ba+2] [Ba^2+]")
102
>>> observed_result("[Fe+2] [Fe^2+]")
96
>>> observed_result("[Co+2] [Co^2+]")
103
>>> observed_result("[Zn+2] [Zn^2+]")
88
>>> observed_result("[Ni+2] [Ni^2+]")
102
>>> observed_result("[Sr+2] [Sr^2+]")
101
>>> observed_result("[Hg+2] [Hg^2+]")
1
>>> observed_result("[Ca+2] [Ca^2+]")
101
>>> observed_result("O=C(O)CN(CCN(CC(=O)O)CC(=O)O)CC(=O)O [EDTA]")
104
>>> observed_result("[Pb+2] [Pb^2+]")
89
>>> observed_result("[Mn+2] [Mn^2+]")
106
>>> observed_result("[Al+3] [Al^3+]")
103

====

# System: α-isomaltosyl-transferring enzyme from Arthrobacter globiformis A19
# method_summary: Action on saccharides (substrates, TLC)
# Type: biochemical
# Set-up: key: −: there was found no substrate change before and after the enzymatic reaction; +: there were found both the reduction of substrate and the formation of cyclotetrasaccharide after the enzymatic reaction
# particulars: partially purified enzyme, 2 units/g substrate, 2% (w/v) substrate, 30° C., pH 6.0, 24 hours
assay_metric: Enzymatic action for forming cyclotetrasaccharide, Enzyme of Strain A19

>>> observed_result("OC[C@H]1O[C@H](OC[C@H]2O[C@H](O[C@H]3[C@H](O)[C@@H](O)C(O)O[C@@H]3CO)[C@H](O)[C@@H](O)[C@@H]2O)[C@H](O)[C@@H](O)[C@@H]1O (some centres unmarked) [Panose, panose]")
"+"
>>> observed_result("OC[C@H]1O[C@@H](OC[C@H]2OC(O)[C@H](O)[C@@H](O)[C@@H]2O)[C@H](O)[C@@H](O)[C@@H]1O (some centres unmarked) [Gentibiose, gentibiose]")
"−"
>>> observed_result("OC[C@H]1O[C@H](O[C@H]2O[C@H](CO)[C@@H](O)[C@H](O)[C@H]2O)[C@H](O)[C@@H](O)[C@@H]1O [α,α-Trehalose, α,α-trehalose]")
"−"
>>> observed_result("OC[C@H]1O[C@H](O[C@H]2[C@H](O)[C@@H](O)[C@@H](O[C@H]3[C@H](O)[C@@H](O)[C@@H](O[C@H]4[C@H](O)[C@@H](O)C(O)O[C@@H]4CO)O[C@@H]3CO)O[C@@H]2CO)[C@H](O)[C@@H](O)[C@@H]1O (some centres unmarked) [Maltotetraose, maltotetraose]")
"−"
>>> observed_result("OC[C@H]1O[C@H](O[C@H]2[C@H](O)[C@@H](CO)OC(O)[C@@H]2O)[C@H](O)[C@@H](O)[C@@H]1O (some centres unmarked) [Nigerose, nigerose]")
"−"

====

# Test system: α-isomaltosyl-transferring enzyme from Arthrobacter globiformis A19
# method_summary: Action on saccharides (substrates, TLC)
# Assay type: biochemical
# Design: key: −: there was found no substrate change before and after the enzymatic reaction; +: there were found both the reduction of substrate and the formation of cyclotetrasaccharide after the enzymatic reaction
# particulars: partially purified enzyme, 2 units/g substrate, 2% (w/v) substrate, 30° C., pH 6.0, 24 hours
assay_metric: Enzymatic action for forming cyclotetrasaccharide, Enzyme of Strain A19

>>> observed_result("OC[C@H]1O[C@@H]2O[C@H]3[C@H](O)[C@@H](O)[C@@H](O[C@H]4[C@H](O)[C@@H](O)[C@@H](O[C@H]5[C@H](O)[C@@H](O)[C@@H](O[C@H]6[C@H](O)[C@@H](O)[C@@H](O[C@H]7[C@H](O)[C@@H](O)[C@@H](O[C@H]8[C@H](O)[C@@H](O)[C@@H](O[C@H]9[C@H](O)[C@@H](O)[C@@H](O[C@H]1[C@H](O)[C@H]2O)O[C@@H]9CO)O[C@@H]8CO)O[C@@H]7CO)O[C@@H]6CO)O[C@@H]5CO)O[C@@H]4CO)O[C@@H]3CO")
"−"
>>> observed_result("OC[C@H]1O[C@H](O[C@H]2[C@H](O)[C@@H](O)[C@@H](OC[C@H]3OC(O)[C@H](O)[C@@H](O)[C@@H]3O)O[C@@H]2CO)[C@H](O)[C@@H](O)[C@@H]1O (stereo partly drawn)")
"−"
>>> observed_result("O=C[C@H](O)[C@@H](O)[C@H](O[C@@H]1O[C@H](CO)[C@@H](O)[C@H](O)[C@H]1O)[C@H](O)CO")
"−"

====

# System: α-isomaltosyl-transferring enzyme from Bacillus globisporus C11
# method_summary: Specificity to transferring acceptor
# Assay type: biochemical
# Parameters: key: −: no saccharide transferred product was formed; ±: a saccharide-transferred product formed in an amount of less than one percent to the total sugars; +: a saccharide-transferred product was formed in an amount of over one percent but below 10% to the total sugars; ++: a saccharide-transferred product was formed in an amount of over 10% to the total sugars
# particulars: panose as saccharide donor, 10 units/g substrate, 3.2% (w/v), 30° C., pH 6.0, 24 hours
assay_metric: Product of transferring reaction, Enzyme of Strain C11

>>> observed_result("OC[C@@H](O)C(O)[C@H](O)CO [Arabitol, arabitol]")
"−"

Data provenance is patent US7192746B2.
